This collection of values is drawn from patent US20220204611A1.

Molecular target: T1, recombinant soluble human TREM2 protein (human TREM2 ECD-FlagHis) (human, UniProt Q9NZC2 19-174)
T1 sequence: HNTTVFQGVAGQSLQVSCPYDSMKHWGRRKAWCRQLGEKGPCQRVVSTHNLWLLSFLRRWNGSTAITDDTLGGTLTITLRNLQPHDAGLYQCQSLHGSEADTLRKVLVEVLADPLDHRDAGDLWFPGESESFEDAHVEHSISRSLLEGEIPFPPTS
Assay: Octet BLI binning; competitor: load Ab 24A10
Protocol: Each of sixteen different anti-TREM2 antibodies produced from hybridomas were quantitated and loaded onto one of the anti-human Fc sensors at 5 μg/mL for 2 minutes (“Load Antibody”). The sensor was then blocked with 100 μg/mL of an irrelevant human IgG2 antibody for 5 minutes. […] Next, each of the sixteen different anti-TREM2 antibodies (“Sandwich Antibody”) was added to the sensor at 5 μg/mL and allowed to bind for 5 minutes. […]
reported.endpoint: sandwich binding signal

I have this binder here, 24F4 (antibody, human IgG2, V domains shown, human IgG2 from hybridoma) VH: EVQLVQSGAEVKKPGESLKISCKGSGYTFTSYWIGWVRQMPGKGLEWMGIIYPGDSDTRYSPSFQGQVTISVDKSSSTAYLQWSSLKASDTAIYYCTRQAIAVTGLGGFDPWGQGTLVTVSS VL: EIVLTQSPGTLSLSPGERATLSCRASQSVSSSYLAWYQQKPGQAPRLLIYGASSRATGIPDRFSGSGSGTDFTLTISRLEPEDFALYYCQQYDTSPFTFGPGTKVDIK , and I need its recorded sandwich binding signal. 0.335

Sample 13E7 (antibody, human IgG2, V domains shown, human IgG2 from hybridoma) VH: EVQLVQSGAEVKKPGESLMISCKGSGYSFTSYWIGWVRQMPGKGLEWMGIIYPGDSDTRYSPSFQGQVTISADKSISTAYLQWSSLKASDTAMYFCARRRQGIWGDALDFWGQGTLVTVSS VL: EIVMTQSPATLSVSPGERATLSCRASQSVSSNLAWFQQKPGQAPRLLIYGASTRATGIPARFSVSGSGTEFTLTISSLQSEDFAVYYCLQDNNWPPTFGPGTKVDIK — what was its sandwich binding signal? 0.383

Others:
Consider the binder shown here: 6E7 (antibody, human IgG2, V domains shown, human IgG2 from hybridoma) VH: EVQLVQSGAEVKKPGESLKISCKGSGYSFTSYWIAWVRQMPGKGLEWMGIIYPGDSDTRYSPSFQGQVTISADKSISTAYLQWSSLKASDTAMYFCARQRTFYYDSSDYFDYWGQGTLVTVSS VL: DIQMTQSPSSVSASVGDRVTITCRASQGISSWLAWYQQKPGKAPKLLIYAASSLQNGVPSRFSGSGSGTDFTLTISSLQPEDFATYFCQQADSFPRTFGQGTKLEIK What is its recorded sandwich binding signal? 0.499

Look at this binder and give its reported sandwich binding signal. 16B8 (antibody, human IgG4, V domains shown, human IgG4 (G4) from hybridoma) VH: QVQLVQSGAEVKKPGASVKVSCKASGYTFTNYGISWVRQAPGQGLEWMGWISAYNGNTNYAQKLQGRVTMTTDTSTSTVYMELRSLRSDDTAVYYCARRGYSYGSFDYWGQGTLVTVSS VL: DIQMTQSPSSVSASVGDRVTVTCRASQDINSWLAWYQQKPGKAPKLLIYAASSLQTGVPSRFSGSGSGTDFTLTISSLQPEDFATYSCQQSNSFPITFGQGTRLEIK 0.423

Given 5E3 (antibody, human IgG2, V domains shown, human IgG2 from hybridoma) VH: QVQLVQSGAEVKKPGASVKVSCKASGYTFTGYYIHWVRQAPGLGLEWMGWINPYSGGTTSAQKFQGRVTMTRDTSISSAYMELSRLRSDDTAVYYCARDGGYLALYGTDVWGQGTTVTVSS VL: DIQMTQSPSSLSASVGDRVTITCRASQGISNYLAWFQQKPGKAPKSLIYAASSLQSGVPSKFSGSGSGTDFTLTISSLQPEDFATYYCQQYSTYPFTFGPGTKVDIK , state its recorded sandwich binding signal. 0.441
